Tested on: M. tuberculosis sp. 192
EXPERIMENT: Tuberculostatic activity, classical test-tube method of successive dilution
Format: cell-based
PROTOCOL CONDITIONS: Mycobacterium tuberculosis; sp. 192, fully sensitive wild strain
QUANTITY KIND: MIC (µg/mL)
Report the figure in µg/mL without appending any unit label.

Give the measured MIC of `NC(=NS(=O)(=O)c1ccccc1Cl)c1ncccn1` .
50

Give the measured MIC of `NC(=NS(=O)(=O)c1cnccc1Cl)c1ncccn1` .
50

Give the measured MIC of NNC(=O)c1ccncc1 [INH, isoniazid, reference compound] .
0.5

Give the measured MIC of `NC(=NS(=O)(=O)c1cnccc1Cl)c1cnccn1` .
25

Give the measured MIC of `NC(=NS(=O)(=O)c1cnccc1Cl)c1ccccn1` .
50
